# Target Or System: PIP4K2A (Homo sapiens (Human), UniProt P48426)
# Sequence (P48426 whole entry): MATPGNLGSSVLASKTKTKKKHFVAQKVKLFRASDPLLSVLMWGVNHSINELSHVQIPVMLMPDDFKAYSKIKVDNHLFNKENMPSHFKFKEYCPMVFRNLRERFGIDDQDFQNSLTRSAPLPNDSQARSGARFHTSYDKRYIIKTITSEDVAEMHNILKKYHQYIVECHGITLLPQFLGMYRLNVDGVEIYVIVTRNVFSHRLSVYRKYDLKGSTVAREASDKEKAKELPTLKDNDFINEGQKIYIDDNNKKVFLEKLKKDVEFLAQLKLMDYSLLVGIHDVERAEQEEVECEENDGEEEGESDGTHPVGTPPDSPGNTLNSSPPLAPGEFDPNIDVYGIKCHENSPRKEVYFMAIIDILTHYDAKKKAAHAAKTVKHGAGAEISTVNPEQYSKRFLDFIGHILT
# Procedure Details: KiNativ assay
# Type: binding
# Conditions Used: H929 live cell, read-out: inhibition (10 μM)
Measured Attribute: inhibition at 10 µM
Entry format: amount then unit.

>>> result("Nc1ncc(-c2cccc([N+](=O)[O-])c2F)cc1-c1ccc2c(c1)CCNC2=O")
"10.2%"
>>> result("COc1cc(NS(=O)(=O)C2CC2)ccc1-c1cnc(N)c(-c2ccc3c(c2)CCNC3=O)c1")
"-5.5%"
>>> result("CN(C1CC1)S(=O)(=O)c1ccc(-c2cnc(N)c(-c3ccc4c(c3)CCNC4=O)c2)c(F)c1")
"3.2%"
>>> result("Nc1ncc(-c2cccc3ncsc23)cc1-c1ccc2c(c1)CCNC2=O")
"2.3%"
>>> result("Nc1ncc(-c2ccc(NS(=O)(=O)C3CC3)cc2F)cc1-c1ccc2c(c1)CCNC2=O")
"-16.5%"

The recorded inhibition at 10 µM for entry `Nc1ncc(-c2ccc(NS(=O)(=O)C3CC3)cc2OC2CCCCC2)cc1-c1ccc2c(c1)CCNC2=O` equals -4.6%

* * *

# Target Or System: HPK1 (Homo sapiens (Human))
# Sequence (Q92918 whole entry): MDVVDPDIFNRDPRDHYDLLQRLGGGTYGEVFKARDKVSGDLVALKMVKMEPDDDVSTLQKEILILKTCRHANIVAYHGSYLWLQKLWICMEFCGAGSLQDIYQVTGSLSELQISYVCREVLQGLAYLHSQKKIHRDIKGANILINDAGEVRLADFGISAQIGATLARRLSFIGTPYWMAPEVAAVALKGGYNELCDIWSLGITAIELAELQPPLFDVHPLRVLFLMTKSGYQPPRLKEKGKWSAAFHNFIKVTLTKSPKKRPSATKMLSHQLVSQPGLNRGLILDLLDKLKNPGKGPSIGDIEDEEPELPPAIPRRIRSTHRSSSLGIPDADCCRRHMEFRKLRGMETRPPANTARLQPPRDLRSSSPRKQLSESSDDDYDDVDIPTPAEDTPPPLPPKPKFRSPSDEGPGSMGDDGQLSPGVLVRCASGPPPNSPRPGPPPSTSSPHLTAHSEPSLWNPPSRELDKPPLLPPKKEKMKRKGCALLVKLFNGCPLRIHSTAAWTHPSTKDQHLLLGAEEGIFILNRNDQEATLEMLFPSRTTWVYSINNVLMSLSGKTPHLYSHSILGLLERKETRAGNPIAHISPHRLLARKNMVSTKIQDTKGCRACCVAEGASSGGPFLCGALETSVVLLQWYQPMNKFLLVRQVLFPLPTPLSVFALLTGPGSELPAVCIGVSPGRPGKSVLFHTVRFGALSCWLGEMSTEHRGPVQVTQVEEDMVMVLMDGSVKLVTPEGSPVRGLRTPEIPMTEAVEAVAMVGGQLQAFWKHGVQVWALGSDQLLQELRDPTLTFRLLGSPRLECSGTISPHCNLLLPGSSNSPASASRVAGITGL
# Procedure Details: KiNativ assay
# Type: binding
# Conditions Used: H929 live cell, read-out: inhibition (10 μM)
# Method: Biochemical IC50s of the compounds of the present disclosure against various kinases were measured in a KiNativ assay. Compounds were screened in duplicate at 10 μM in H929 live cell. IC50 was measured via Mass spectroscopy (MS).
Measured Attribute: inhibition at 10 µM (%)
Give bare numbers, in %.

Examples with their reported inhibition at 10 µM follow.
>>> quantitative_result("Nc1ncc(-c2cccc3ncsc23)cc1-c1ccc2c(c1)CCNC2=O")
52.1
>>> quantitative_result("Nc1ncc(-c2ccc(NS(=O)(=O)C3CC3)cc2OC2CCCCC2)cc1-c1ccc2c(c1)CCNC2=O")
95.5
>>> quantitative_result("Nc1ncc(-c2ccc(NS(=O)(=O)C3CC3)cc2F)cc1-c1ccc2c(c1)CCNC2=O")
83.5
>>> quantitative_result("COc1cc(NS(=O)(=O)C2CC2)ccc1-c1cnc(N)c(-c2ccc3c(c2)CCNC3=O)c1")
90.4
>>> quantitative_result("CN(C1CC1)S(=O)(=O)c1ccc(-c2cnc(N)c(-c3ccc4c(c3)CCNC4=O)c2)c(F)c1")
90.8

API: the following record is the query input.
The recorded inhibition at 10 µM for entry `Nc1ncc(-c2cccc([N+](=O)[O-])c2F)cc1-c1ccc2c(c1)CCNC2=O` equals 97.5

* * *

# Target Or System: AurA (Homo sapiens (Human))
# Sequence (O14965 whole entry): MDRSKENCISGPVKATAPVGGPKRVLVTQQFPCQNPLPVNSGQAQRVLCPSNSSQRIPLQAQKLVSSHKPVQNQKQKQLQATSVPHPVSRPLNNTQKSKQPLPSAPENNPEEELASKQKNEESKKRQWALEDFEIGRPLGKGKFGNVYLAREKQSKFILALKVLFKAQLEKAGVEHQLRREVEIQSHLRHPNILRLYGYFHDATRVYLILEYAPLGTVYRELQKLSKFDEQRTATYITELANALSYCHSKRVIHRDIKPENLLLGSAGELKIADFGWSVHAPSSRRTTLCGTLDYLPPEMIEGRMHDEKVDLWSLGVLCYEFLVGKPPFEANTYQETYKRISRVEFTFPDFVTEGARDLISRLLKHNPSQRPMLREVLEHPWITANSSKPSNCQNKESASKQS
# Procedure Details: KiNativ assay
# Assay type: binding
# Conditions Used: H929 live cell
Output 1 for inhibition (10 μM) not less than 30%; output -1 otherwise.

Take a look at these entries with their results.
>>> cat("CN(C1CC1)S(=O)(=O)c1ccc(-c2cnc(N)c(-c3ccc4c(c3)CCNC4=O)c2)c(F)c1")
1
>>> cat("Nc1ncc(-c2cccc([N+](=O)[O-])c2F)cc1-c1ccc2c(c1)CCNC2=O")
1
>>> cat("Nc1ncc(-c2ccc(NS(=O)(=O)C3CC3)cc2F)cc1-c1ccc2c(c1)CCNC2=O")
1
>>> cat("Nc1ncc(-c2cccc3ncsc23)cc1-c1ccc2c(c1)CCNC2=O")
-1
>>> cat("COc1cc(NS(=O)(=O)C2CC2)ccc1-c1cnc(N)c(-c2ccc3c(c2)CCNC3=O)c1")
-1

Could you now consider this next compound?
**Q:** Textbook exercise: given the entry `Nc1ncc(-c2ccc(NS(=O)(=O)C3CC3)cc2OC2CCCCC2)cc1-c1ccc2c(c1)CCNC2=O` , state whether its inhibition (10 μM) is greater than or equal to 30%.
**A:** 1
